Provenance of the data: ChEMBL document CHEMBL2150869

molecular target: Opioid receptors; mu and delta (Mus musculus, UniProt P42866+P32300); assay: Agonist activity at MOR/DOR in NMRI mouse frontal cortex assessed as reduction in spinal cord network activity by electrophysiology assay; type: functional, tissue-based
Where a SMILES comes first, the peptide text is derived from it. [ ]: non-standard residue; d: D form. Dmt = Cc1cc(O)cc(C)c1C[C@H](N)C(=O)O; dNMeA = CN[C@H](C)C(=O)O; Sar = CNCC(=O)O
Measure Name: EC50

Use these answered entries as a reference point.
Q: Return reported EC50; argument: `Cc1cc(O)cc(C)c1C[C@H](N)C(=O)N(C)[C@H](C)C(=O)N[C@H]1Cc2ccccc2CN(CC(N)=O)C1=O`
Result: 1.61 ×10⁻¹⁵ M

Q: Please give the result for `C[C@H](C(=O)N[C@H]1Cc2ccccc2CN(CC(N)=O)C1=O)N1Cc2cc(O)ccc2C[C@H](N)C1=O` too.
Result: 5.67 ×10⁻⁷ M

Q: Would you kindly repeat that for C[C@H](C(=O)N[C@@H](Cc1ccccc1)C(=O)N(C)CC(N)=O)N(C)C(=O)[C@@H](N)Cc1ccc(O)cc1 (H-Y[dNMeA]F[Sar]-NH2) ?
Result: 5 ×10⁻¹² M

# ---- query molecule ----
Q: Record request: EC50 value, item Cc1cc(O)cc(C)c1C[C@H](N)C(=O)N(C)[C@H](C)C(=O)N[C@@H](Cc1ccccc1)C(=O)N(C)CC(N)=O (H-[Dmt][dNMeA]F[Sar]-NH2)
Result: 1.29 ×10⁻¹³ M
